Each record here notes measured inhibition.
# Target: Rac GTPase-activating protein 1 (Homo sapiens) (UniProt Q9H0H5)
# Sequence (Q9H0H5 whole entry, looked up): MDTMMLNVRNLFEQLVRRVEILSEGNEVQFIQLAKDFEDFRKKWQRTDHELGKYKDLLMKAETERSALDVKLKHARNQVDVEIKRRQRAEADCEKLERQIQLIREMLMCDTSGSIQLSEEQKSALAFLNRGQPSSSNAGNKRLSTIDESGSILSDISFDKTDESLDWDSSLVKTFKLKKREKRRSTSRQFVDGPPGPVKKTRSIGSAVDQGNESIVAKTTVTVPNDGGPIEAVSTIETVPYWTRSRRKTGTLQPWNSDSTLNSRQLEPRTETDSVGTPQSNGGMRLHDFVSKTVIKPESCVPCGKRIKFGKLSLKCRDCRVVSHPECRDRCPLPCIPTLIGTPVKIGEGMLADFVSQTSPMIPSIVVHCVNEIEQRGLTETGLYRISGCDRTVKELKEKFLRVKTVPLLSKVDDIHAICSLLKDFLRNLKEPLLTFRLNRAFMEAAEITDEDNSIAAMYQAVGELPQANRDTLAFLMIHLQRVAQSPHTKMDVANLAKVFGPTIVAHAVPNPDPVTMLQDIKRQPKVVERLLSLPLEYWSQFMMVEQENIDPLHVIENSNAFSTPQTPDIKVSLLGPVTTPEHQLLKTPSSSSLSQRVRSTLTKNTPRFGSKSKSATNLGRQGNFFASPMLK
# Assay Name: blockers of MgcRacGAP-driven Rac1 GTP hydrolysis – biochemical, ADP Hunter fluorescence, primary and confirmatory, confirmation (AID 624330);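 further: fluorescence reports GDP produced by GAP-driven GTP hydrolysis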
# Experimental Setup: MgcRacGAP-stimulated Rac1 GTP hydrolysis, at 30 µM, active compounds read high, GST-tagged Rac1 F28L mutant substrate
Among all 340,000 compounds or so, about 2,100 (0.62%) were called active. The list is a sample of the results. Measured potencies and affinities stand elsewhere.

[
  {
    "Compound": "Oc1ccccc1N=Cc1ccc[nH]1",
    "inhibition [%]": 16.7
  },
  {
    "Compound": "Cc1ccc2nc(C)cc(N/N=C/c3cccc(O)c3)c2c1",
    "inhibition [%]": 14.1
  },
  {
    "Compound": "CCC(=O)Oc1ccc(NC(=O)CSCc2ccccc2)cc1",
    "inhibition [%]": 13.9
  },
  {
    "Compound": "COc1cccc2c(N/N=C/c3ccc(O)c(O)c3)cc(C)nc12",
    "inhibition [%]": 27.1
  },
  {
    "Compound": "Cc1cc(C(=O)N2CCCC(N3CCN(c4cccc(Cl)c4)CC3)C2)n(C)n1 (configuration not stated)",
    "inhibition [%]": 9.25
  },
  {
    "Compound": "CCOc1cc2c(cc1OCC)C(c1ccccc1)N(c1ccccc1)C(=O)C2 (configuration not stated)",
    "inhibition [%]": 1.91
  },
  {
    "Compound": "COc1cc(OC)cc(C(=O)NCC2CCCN(C(=O)c3csc(C(C)C)n3)C2)c1 (configuration not stated)",
    "inhibition [%]": 8.24
  },
  {
    "Compound": "CN(C)/C=N/c1ncc(C(=O)c2ccc(Cl)cc2)s1",
    "inhibition [%]": 3.44
  },
  {
    "Compound": "Cc1ccc(C(=O)N2CCCC(Nc3ccc(C(C)C)cc3)C2)cn1 (configuration not stated)",
    "inhibition [%]": 7.62
  },
  {
    "Compound": "Cc1ccc(NS(=O)(=O)c2ccc(C)c(NC(=O)c3ccc(S(=O)(=O)N4CCCCCC4)cc3)c2)c(C)c1",
    "inhibition [%]": 11.6
  },
  {
    "Compound": "CCOC(=O)c1cc(NC(=O)CNCC(c2ccccc2)N(C)C)cc(C(=O)OCC)c1 (configuration not stated)",
    "inhibition [%]": 16.1
  },
  {
    "Compound": "COc1cccc2c(N/N=C/c3ccccc3)cc(C)nc12",
    "inhibition [%]": 11
  },
  {
    "Compound": "CC(=O)c1ccc(OCC(=O)N2CCCC(Nc3ccc(C)c(C)c3)C2)cc1 (configuration not stated)",
    "inhibition [%]": 14.3
  },
  {
    "Compound": "CCOc1ccc(NC(=O)CN(C)C(=O)c2cn(-c3ccc(F)cc3)nc2-c2cccc(OC)c2)cc1OCC",
    "inhibition [%]": 0.09
  },
  {
    "Compound": "Cc1cc(NC(=O)CNCC(c2ccccc2)N(C)C)c([N+](=O)[O-])cc1C (configuration not stated)",
    "inhibition [%]": 13.9
  },
  {
    "Compound": "COCCCNC(=O)CC1C[C@H](C(=O)N2CCOCC2)[C@@]2(C)c3[nH]c4ccc(OC)cc4c3CCN2C1=O (some centres not stated)",
    "inhibition [%]": 8.55
  },
  {
    "Compound": "CC(C)C(=O)N(Cc1ccc2c(c1)OCO2)Cc1ccccn1",
    "inhibition [%]": 7.22
  },
  {
    "Compound": "CCCCNS(=O)(=O)c1ccc2nc(SCC(=O)Nc3sccc3C#N)[nH]c2c1",
    "inhibition [%]": 4.59
  },
  {
    "Compound": "CC(=O)c1ccc(C(=O)N2CCCC(Nc3ccc(C(C)C)cc3)C2)s1 (configuration not stated)",
    "inhibition [%]": -45.7
  },
  {
    "Compound": "COc1ccc(CCNC(=O)Cc2ccccc2)cc1OC",
    "inhibition [%]": 10
  },
  {
    "Compound": "Cc1cc(C)nc(NC(=O)/C=C/c2ccccc2Cl)n1",
    "inhibition [%]": 6.5
  },
  {
    "Compound": "COc1ccc(NC2CCCN(C(=O)c3cccnc3)C2)cc1 (configuration not stated)",
    "inhibition [%]": 26.2
  }
]
